# target.under.test: AHR (Homo sapiens, UniProt P35869)
# Construct: U87 MG glioblastoma cells (ATCC #HTB-14) endogenously expressing AHR; endogenous in cells; host or cells: U87 MG glioblastoma cells (ATCC #HTB-14)
# Sequence (P35869 11-848): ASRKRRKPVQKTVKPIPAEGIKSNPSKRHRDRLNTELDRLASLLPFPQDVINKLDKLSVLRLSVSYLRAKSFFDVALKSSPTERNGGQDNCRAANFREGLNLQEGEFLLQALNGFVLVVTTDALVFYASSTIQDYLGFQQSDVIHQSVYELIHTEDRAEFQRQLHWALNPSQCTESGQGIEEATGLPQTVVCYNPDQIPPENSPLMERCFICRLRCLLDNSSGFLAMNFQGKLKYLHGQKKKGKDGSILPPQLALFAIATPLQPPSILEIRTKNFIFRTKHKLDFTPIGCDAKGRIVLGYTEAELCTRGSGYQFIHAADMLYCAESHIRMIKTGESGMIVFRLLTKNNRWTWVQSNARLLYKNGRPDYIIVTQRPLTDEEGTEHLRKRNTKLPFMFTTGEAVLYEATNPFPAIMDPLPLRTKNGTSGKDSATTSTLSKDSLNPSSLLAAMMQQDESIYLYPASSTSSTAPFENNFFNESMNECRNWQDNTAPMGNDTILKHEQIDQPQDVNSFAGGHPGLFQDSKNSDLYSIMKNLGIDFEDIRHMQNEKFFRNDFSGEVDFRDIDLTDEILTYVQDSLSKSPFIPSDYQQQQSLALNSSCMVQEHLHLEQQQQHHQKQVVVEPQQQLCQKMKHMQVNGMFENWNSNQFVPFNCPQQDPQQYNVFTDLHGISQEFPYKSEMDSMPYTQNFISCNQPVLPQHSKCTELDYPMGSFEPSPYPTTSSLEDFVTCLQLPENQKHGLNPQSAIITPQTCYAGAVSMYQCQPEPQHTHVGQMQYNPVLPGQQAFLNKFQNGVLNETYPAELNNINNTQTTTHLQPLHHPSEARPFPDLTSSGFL
# measurement.protocol: In vitro assay 1: antagonism in human cell line (AHR transactivation, firefly luciferase reporter, kynurenic acid prestimulated)
# Assay type: cell-based
# assay.conditions: AHR Antagonism Human IC50 [M]
# Experimental: Examples were tested in selected biological assays one or more times. […] Firefly luciferase and Renilla activity was determined by the DualGlo Luciferase Assay System (Promega, #2920). […]
measure.name: IC50 (M)

Below, each entry is followed by its recorded IC50 result.
>  <molecule>
CSc1ccc(-c2nc3c4ccccc4nc(N[C@@H]4CCCCNC4=O)n3n2)c(F)c1

>  <IC50 [M]>
4.83e-10

$$$$
>  <molecule>
N#Cc1ccc(-c2nc3c4ccccc4nc(N[C@H]4CCCCNC4=O)n3n2)cc1

>  <IC50 [M]>
3.65e-08

$$$$

A: COc1cccc(-c2nc3c4ccc(C)cc4nc(N[C@@H]4CCCCNC4=O)n3n2)c1
B: COc1cccc(-c2nc3c4ccccc4nc(NC4CCCNC4=O)n3n2)c1 (single isomer, unassigned) [Example 119]
Lower IC50: A or B ? Returns: label corresponding to the selected item.
A
(A: 3.17e-08 M, B: 7.8e-07 M)

P: O=C1NCCCC[C@H]1Nc1nc2ccccc2c2nc(-c3cccc(C(F)(F)F)n3)nn12
Q: COc1ccc(-c2nc3c4c(C(F)(F)F)cccc4nc(N[C@@H]4CNCCNC4=O)n3n2)cc1
R: Cn1cc(-c2nc3c4ccccc4nc(N[C@H]4CCCCNC4=O)n3n2)cn1
Arrange the 3 entries by IC50 so the values rise. In your reply, arrange the labels in the requested order.
P, R, Q
(P: 5.45e-08 M, R: 2.14e-07 M, Q: 1.36e-06 M)
